Molecular target: Aminopeptidase N (Plasmodium falciparum (isolate 3D7))
Experiment: malaria alanyl aminopeptidase activity blockers – biochemical, fluorogenic H-Leu-NHMec substrate, 1536-well (AID 1445);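 note: plate controls were DMSO full reaction for no effect and no enzyme background for full effect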
Details: recombinant M1AAP, H-Leu-NHMec fluorogenic kinetic assay; at 30 µM, hits give high values unless noted
Among all 220,000 compounds or so, about 910 (0.41%) were called active. The list comes from a sample in which actives are over-represented; it also holds close analogues and randomly drawn compounds. Measured potencies and affinities stand elsewhere.
Returns the class for an entry based on its inhibition. Class ranges: zone 1 (below 10%), zone 2 (10% to below 20%), zone 3 (20% or more)

Field: example entries. Status: answers known.
COc1ccc(/C=N/NC(=O)c2ccc(N)cc2)cc1Cn1cc([N+](=O)[O-])cn1    zone 2
COc1ccc(S(=O)(=O)Nc2cc(Sc3ncn[nH]3)c(O)c3ccccc23)cc1    zone 3

Query: Given COCc1c(C(=O)OC)nnn1-c1ccccc1 , name the class its inhibition places it in.
Reply: zone 1

Query: Given O=C(NCc1ccc2c(c1)OCO2)C1CCN(S(=O)(=O)N2CCCCC2)CC1 , name the class its inhibition places it in.
Reply: zone 2

Query: Given COC(=O)C1=NN(C(=O)c2cccc(Cl)c2)C(O)(C(C)(C)C)C1 (stereo not given) , name the class its inhibition places it in.
Reply: zone 3

Query: Given O=C(NCc1ccc2c(c1)OCO2)C1CCCN(S(=O)(=O)c2cccs2)C1 (stereo not given) , name the class its inhibition places it in.
Reply: zone 3

Query: Given O=S(=O)(Nc1cc(Sc2ncn[nH]2)c(O)c2ccccc12)c1ccccc1 , name the class its inhibition places it in.
Reply: zone 2

Query: Given COc1ccc(/C=N/NC(=O)c2ccccc2O)cc1Cn1cc([N+](=O)[O-])cn1 , name the class its inhibition places it in.
Reply: zone 1

Query: Given Cc1ccc(CNC(=O)C2CCCN(S(=O)(=O)c3cccnc3)C2)cc1 (stereo not given) , name the class its inhibition places it in.
Reply: zone 2
